system: 439559-082-T-J2-PDC spheroids viability; assay: Anticancer human tumor 439559-082-T-J2-PDC patient-derived colon adenocarcinoma cell line growth inhibition [GQUAD]; details: curve of first compound; second compound 0.0316 µM
TEST_READOUT: IC50

Input: Recorded IC50 for O=C(c1cc(Cc2n[nH]c(=O)c3ccccc23)ccc1F)N1CCN(C(=O)C2CC2)CC1 + CN(C)c1ccc(Nc2c3ccc(NC(=O)CCN4CCCC4)cc3nc3cc(NC(=O)CCN4CCCC4)ccc23)cc1 with 439559-082-T-J2-PDC spheroids viability, please?
Output: > 10 µM

More entries:
Input: Recorded IC50 for Cc1[nH]c2ccccc2c1CCNCc1ccc(/C=C/C(=O)NO)cc1 + Cc1[nH]c2ccc(F)cc2c1-c1nc2c3cccnc3c3ncccc3c2[nH]1 with 439559-082-T-J2-PDC spheroids viability, please?
Output: > 0.316 µM

Input: Recorded IC50 for Cn1ncnc1[C@H]1c2n[nH]c(=O)c3cc(F)cc(c23)N[C@@H]1c1ccc(F)cc1 + CN(C)c1ccc(Nc2c3ccc(NC(=O)CCN4CCCC4)cc3nc3cc(NC(=O)CCN4CCCC4)ccc23)cc1 with 439559-082-T-J2-PDC spheroids viability, please?
Output: > 0.316 µM

Input: Recorded IC50 for C=CC(=O)N1CCN(c2nc(=O)n(-c3c(C)ccnc3C(C)C)c3nc(-c4c(O)cccc4F)c(F)cc23)C(C)C1 (centres undefined) + Cc1cnc(CNC(=O)c2c(=O)c3ccc(N4CCCN(C)CC4)nc3n3c2sc2ccccc23)cn1 with 439559-082-T-J2-PDC spheroids viability, please?
Output: > 10 µM

###

system: 439559-082-T-J2-PDC spheroids viability; assay: Anticancer human tumor 439559-082-T-J2-PDC cell line growth inhibition [GQUAD]; details: curve of first compound; second compound 0.316 µM;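 note: spheroids exposed to the agents for 7 days before readout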
pIC50: −log10 of the molar value.
The following molecules are shown together with reported pIC50 values.

Guide cases for pIC50, answers given:
Input: What pIC50 value was documented for this molecule, COc1cc(C2c3cc4c(cc3C(OC3OC5COC(C)OC5C(O)C3O)C3COC(=O)C23)OCO4)cc(OC)c1O (stereo unspecified) + CN(C)c1ccc(Nc2c3ccc(NC(=O)CCN4CCCC4)cc3nc3cc(NC(=O)CCN4CCCC4)ccc23)cc1 ?
Output: < 5.00

Input: What pIC50 value was documented for this molecule, Cc1[nH]c2ccccc2c1CCNCc1ccc(/C=C/C(=O)NO)cc1 + Cc1cnc(CNC(=O)c2c(=O)c3ccc(N4CCCN(C)CC4)nc3n3c2sc2ccccc23)cn1 ?
Output: < 6.50

Input: What pIC50 value was documented for this molecule, CC(C)n1c(=O)n(C)c2cnc3cc(F)c(-c4ccc(OCCCN5CCCCC5)nc4)cc3c21 + Cc1cnc(CNC(=O)c2c(=O)c3ccc(N4CCCN(C)CC4)nc3n3c2sc2ccccc23)cn1 ?
Output: < 5.00

More entries:
Input: What pIC50 value was documented for this molecule, O=c1[nH]cc(F)c(=O)[nH]1 + Cc1[nH]c2ccc(F)cc2c1-c1nc2c3cccnc3c3ncccc3c2[nH]1 ?
Output: < 5.00

Input: What pIC50 value was documented for this molecule, Cn1ncnc1[C@H]1c2n[nH]c(=O)c3cc(F)cc(c23)N[C@@H]1c1ccc(F)cc1 + Cc1cnc(CNC(=O)c2c(=O)c3ccc(N4CCCN(C)CC4)nc3n3c2sc2ccccc23)cn1 ?
Output: < 6.50

Input: What pIC50 value was documented for this molecule, Cc1[nH]c2ccccc2c1CCNCc1ccc(/C=C/C(=O)NO)cc1 + CN(C)c1ccc(Nc2c3ccc(NC(=O)CCN4CCCC4)cc3nc3cc(NC(=O)CCN4CCCC4)ccc23)cc1 ?
Output: < 6.50

###

System: 439559-082-T-J2-PDC spheroids viability
Assay: Anticancer human tumor 439559-082-T-J2-PDC cell line growth inhibition [GQUAD];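 note: spheroids exposed to the agents for 7 days before readout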
Conditions: curve of first compound; second compound 0.0316 µM
From the text: DNA G-quadruplex Stabilizer Agents in Combinations in Complex Spheroids A high-throughput screen of multi-cell type tumor spheroids was designed to identify active combinations of DNA G-quadruplex stabilizer agents and targeted small molecules. […] Compounds. […] If the clinical Cmax for an agent had not been determined, the highest concentration tested was 10 microM. […]
TEST_READOUT: IC50 (nM)
Respond numerically; units are nM and should not be typed.

Input: What IC50 value was documented for this molecule, O=C(NO)c1cnc(N2CCN(S(=O)(=O)c3ccc4ccccc4c3)CC2)nc1 + CN(C)c1ccc(Nc2c3ccc(NC(=O)CCN4CCCC4)cc3nc3cc(NC(=O)CCN4CCCC4)ccc23)cc1 ?
Output: 445

Here is another molecule to look at.
Input: What IC50 value was documented for this molecule, CCc1c2c(nc3ccc(O)cc13)-c1cc3c(c(=O)n1C2)COC(=O)[C@]3(O)CC + Cc1cnc(CNC(=O)c2c(=O)c3ccc(N4CCCN(C)CC4)nc3n3c2sc2ccccc23)cn1 ?
Output: 157

###

test system: 439559-082-T-J2-PDC spheroids viability; experiment: Anticancer human tumor 439559-082-T-J2-PDC cell line growth inhibition [GQUAD]; settings: curve of first compound; second compound 0.0316 µM;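 note: spheroids exposed to the agents for 7 days before readout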
pIC50: −log10 of the molar value.
TEST_READOUT: pIC50

Guide cases for pIC50, answers given:
Input: Recorded pIC50 for CC1COCCN1c1cc(-c2ccnn2C)c2ccnc(-c3ccn[nH]3)c2n1 (centres undefined) + Cc1cnc(CNC(=O)c2c(=O)c3ccc(N4CCCN(C)CC4)nc3n3c2sc2ccccc23)cn1 with 439559-082-T-J2-PDC spheroids viability, please?
Output: 6.75

Input: Recorded pIC50 for CC[C@@]1(O)C(=O)OCc2c1cc1n(c2=O)Cc2cc3c(CN(C)C)c(O)ccc3nc2-1 + CN(C)c1ccc(Nc2c3ccc(NC(=O)CCN4CCCC4)cc3nc3cc(NC(=O)CCN4CCCC4)ccc23)cc1 with 439559-082-T-J2-PDC spheroids viability, please?
Output: < 6.50

Input: Recorded pIC50 for COc1ncnc(C2CC2)c1-c1ncc2cnn(Cc3ccc(-c4nc(C(F)(F)F)cn4C(C)C)cc3)c2n1 + CN(C)c1ccc(Nc2c3ccc(NC(=O)CCN4CCCC4)cc3nc3cc(NC(=O)CCN4CCCC4)ccc23)cc1 with 439559-082-T-J2-PDC spheroids viability, please?
Output: < 5.00

Input: Recorded pIC50 for CCCS(=O)(=O)Nc1ccc(F)c(C(=O)c2c[nH]c3ncc(-c4ccc(Cl)cc4)cc23)c1F + CN(C)c1ccc(Nc2c3ccc(NC(=O)CCN4CCCC4)cc3nc3cc(NC(=O)CCN4CCCC4)ccc23)cc1 with 439559-082-T-J2-PDC spheroids viability, please?
Output: < 5.00

Input: Recorded pIC50 for CC1COCCN1c1cc(-c2ccnn2C)c2ccnc(-c3ccn[nH]3)c2n1 (centres undefined) + Cc1[nH]c2ccc(F)cc2c1-c1nc2c3cccnc3c3ncccc3c2[nH]1 with 439559-082-T-J2-PDC spheroids viability, please?
Output: 6.37

Input: Recorded pIC50 for Cn1ncnc1[C@H]1c2n[nH]c(=O)c3cc(F)cc(c23)N[C@@H]1c1ccc(F)cc1 + Cc1cnc(CNC(=O)c2c(=O)c3ccc(N4CCCN(C)CC4)nc3n3c2sc2ccccc23)cn1 with 439559-082-T-J2-PDC spheroids viability, please?
Output: < 6.50

More entries:
Input: Recorded pIC50 for Cc1cccc(N(C)C(=O)C2C(O)CCN2c2nc(C)cc(C(F)(F)F)c2C#N)c1 (centres undefined) + Cc1[nH]c2ccc(F)cc2c1-c1nc2c3cccnc3c3ncccc3c2[nH]1 with 439559-082-T-J2-PDC spheroids viability, please?
Output: < 5.00

Input: Recorded pIC50 for COc1ccc([C@@H](O)c2cc(-c3ncnc4cc(N5CCOCC5)ccc34)c(F)cc2Cl)nn1 + Cc1cnc(CNC(=O)c2c(=O)c3ccc(N4CCCN(C)CC4)nc3n3c2sc2ccccc23)cn1 with 439559-082-T-J2-PDC spheroids viability, please?
Output: < 5.00

Input: Recorded pIC50 for CC(C)n1c(=O)n(C)c2cnc3cc(F)c(-c4ccc(OCCCN5CCCCC5)nc4)cc3c21 + Cc1cnc(CNC(=O)c2c(=O)c3ccc(N4CCCN(C)CC4)nc3n3c2sc2ccccc23)cn1 with 439559-082-T-J2-PDC spheroids viability, please?
Output: < 5.00

###

The following compounds are shown together with reported viability, T/C values.
tested on: 439559-082-T-J2-PDC spheroids viability; experiment: Anticancer human tumor 439559-082-T-J2-PDC cell line growth inhibition [GQUAD]; conditions: second compound 3.16 µM; first compound 0.316 µM; stronger effect = lower value;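 note: spheroids exposed to the agents for 7 days before readout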;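 for viability, T/C: percent of luminescence signal in DMSO vehicle wells taken as 100% viability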
Respond numerically; units are % and should not be typed.

Guide cases for viability, T/C, answers given:
Input: Recorded viability, T/C for O=C(c1cc(Cc2n[nH]c(=O)c3ccccc23)ccc1F)N1CCN(C(=O)C2CC2)CC1 + Cc1cnc(CNC(=O)c2c(=O)c3ccc(N4CCCN(C)CC4)nc3n3c2sc2ccccc23)cn1 with 439559-082-T-J2-PDC spheroids viability, please?
Output: 68.8

Input: Recorded viability, T/C for CC1COCCN1c1cc(C2(S(C)(=N)=O)CC2)nc(-c2ccnc3[nH]ccc23)n1 (configuration not stated) + Cc1[nH]c2ccc(F)cc2c1-c1nc2c3cccnc3c3ncccc3c2[nH]1 with 439559-082-T-J2-PDC spheroids viability, please?
Output: 80.8

Input: Recorded viability, T/C for COc1ncnc(C2CC2)c1-c1ncc2cnn(Cc3ccc(-c4nc(C(F)(F)F)cn4C(C)C)cc3)c2n1 + CN(C)c1ccc(Nc2c3ccc(NC(=O)CCN4CCCC4)cc3nc3cc(NC(=O)CCN4CCCC4)ccc23)cc1 with 439559-082-T-J2-PDC spheroids viability, please?
Output: 91.6

Input: Recorded viability, T/C for C#Cc1c(F)ccc2cc(O)cc(-c3ncc4c(N5CC6CCC(C5)N6)nc(OCC56CCCN5CC(F)C6)nc4c3F)c12 (configuration not stated) + Cc1[nH]c2ccc(F)cc2c1-c1nc2c3cccnc3c3ncccc3c2[nH]1 with 439559-082-T-J2-PDC spheroids viability, please?
Output: 70.8

More entries:
Input: Recorded viability, T/C for C=CC(=O)N1CCN(c2nc(=O)n(-c3c(C)ccnc3C(C)C)c3nc(-c4c(O)cccc4F)c(F)cc23)C(C)C1 (configuration not stated) + CN(C)c1ccc(Nc2c3ccc(NC(=O)CCN4CCCC4)cc3nc3cc(NC(=O)CCN4CCCC4)ccc23)cc1 with 439559-082-T-J2-PDC spheroids viability, please?
Output: 108
